target entity: CDK9/cyclin T1 (Homo sapiens, UniProt P50750)
Sequence (O60563 whole entry partner, one chain of several): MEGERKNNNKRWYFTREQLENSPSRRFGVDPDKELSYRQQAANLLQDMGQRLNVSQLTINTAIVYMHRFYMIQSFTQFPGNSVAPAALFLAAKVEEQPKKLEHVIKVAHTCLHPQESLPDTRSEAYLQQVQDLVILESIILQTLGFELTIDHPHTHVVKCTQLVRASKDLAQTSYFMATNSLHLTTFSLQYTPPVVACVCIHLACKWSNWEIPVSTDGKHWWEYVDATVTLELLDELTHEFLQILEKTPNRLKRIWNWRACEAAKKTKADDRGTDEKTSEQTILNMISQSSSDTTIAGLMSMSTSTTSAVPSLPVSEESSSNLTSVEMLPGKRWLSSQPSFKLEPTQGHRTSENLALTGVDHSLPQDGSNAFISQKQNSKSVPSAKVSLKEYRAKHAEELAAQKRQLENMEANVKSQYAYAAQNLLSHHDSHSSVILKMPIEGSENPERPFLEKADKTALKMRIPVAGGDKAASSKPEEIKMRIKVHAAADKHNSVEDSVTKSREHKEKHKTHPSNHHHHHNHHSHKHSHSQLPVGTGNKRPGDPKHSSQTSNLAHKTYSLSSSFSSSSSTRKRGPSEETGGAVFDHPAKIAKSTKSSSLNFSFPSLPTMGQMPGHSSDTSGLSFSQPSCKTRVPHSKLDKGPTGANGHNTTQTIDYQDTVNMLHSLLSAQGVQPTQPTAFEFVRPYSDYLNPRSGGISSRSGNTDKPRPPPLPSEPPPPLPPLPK
assay summary: CDK 9 assay (CTD peptide substrate)
Format: biochemical
recorded conditions: read-out: Kinase Inhibition pIC50 CDK9-cyclin T1 (converted)
# Lookup of reported IC50 keyed by entry
// note: answer is a bare numeric in nM

CNc1nc(C)c(-c2ccnc(Nc3cc(OC)c(OC)c(OC)c3)n2)s1 20
Cc1nc(C)c(-c2ccnc(Nc3cccc(CNS(C)(=O)=O)c3)n2)s1 316
CCNS(=O)(=O)c1cccc(Nc2nccc(-c3sc(N)nc3C)n2)c1 20

Task item: Item under review: CNc1nc(C)c(-c2ccnc(Nc3ccc(S(C)(=O)=O)cc3)n2)s1 . Reported IC50?
Reply: 63.1

Task item: CC(=O)N1CCN(c2ccc(Nc3nccc(-c4sc(N(C)Cc5ccccc5)nc4C)n3)cc2)CC1 , same question.
Reply: 1260

Task item: CC(=O)NCc1ccc(Nc2nccc(-c3sc(N)nc3C)n2)cc1 , same question.
Reply: 251

Task item: Cc1nc(N(C)c2cccnc2)sc1-c1ccnc(Nc2ccc(N3CCOCC3)cc2)n1 , same question.
Reply: 3160

Task item: CCNc1nc(C)c(-c2ccnc(NCc3cccnc3)n2)s1 , same question.
Reply: 1580

Task item: CNc1nc(C)c(-c2ccnc(Nc3cccc(N4CCNCC4)c3)n2)s1 , same question.
Reply: 200

====

# Lookup of reported IC50 keyed by entry
target entity: CDK9/cyclin T1 (Homo sapiens, UniProt P50750)
assay summary: CDK 9 assay (CTD peptide substrate)
Type: biochemical
recorded conditions: read-out: Kinase Inhibition pIC50 CDK9-cyclin T1 (converted)
Remember to follow the number with its unit.

Sample records with IC50:
compound	IC50
CNc1nc(C)c(-c2ccnc(Nc3cccc(S(=O)(=O)Nc4cccc(OC)c4)c3)n2)s1	2510 nM
CNc1nc(C)c(-c2ccnc(Nc3ccc(C)c(Br)c3)n2)s1	39.8 nM
CCNc1nc(C)c(-c2ccnc(Nc3ccc(N4CCNCC4)cc3)n2)s1	100 nM
Cc1nc(CO)sc1-c1ccnc(Nc2ccc(N3CCOCC3)cc2)n1	3980 nM
Cc1nc(C)c(-c2ccnc(Nc3ccc(N4CCCCC4)cc3)n2)s1	3980 nM
Cc1nc(C)c(-c2ccnc(Nc3ccc(N4CC(C)OC(C)C4)cc3)n2)s1 (centres unmarked)	3980 nM

Task item: Item under review: CC(=O)N1CCN(c2ccc(Nc3nccc(-c4sc(-c5cccs5)nc4C)n3)cc2)CC1 . Reported IC50?
Reply: 2510 nM

Task item: Cc1nc(C)c(-c2ccnc(Nc3ccc(N4CCN(CC(=O)NC(C)C)CC4)cc3)n2)s1 , same question.
Reply: 2510 nM

====

# Lookup of reported IC50 keyed by entry
target entity: Aurora A kinase (Homo sapiens)
Construct: purchased
Sequence (O14965 whole entry): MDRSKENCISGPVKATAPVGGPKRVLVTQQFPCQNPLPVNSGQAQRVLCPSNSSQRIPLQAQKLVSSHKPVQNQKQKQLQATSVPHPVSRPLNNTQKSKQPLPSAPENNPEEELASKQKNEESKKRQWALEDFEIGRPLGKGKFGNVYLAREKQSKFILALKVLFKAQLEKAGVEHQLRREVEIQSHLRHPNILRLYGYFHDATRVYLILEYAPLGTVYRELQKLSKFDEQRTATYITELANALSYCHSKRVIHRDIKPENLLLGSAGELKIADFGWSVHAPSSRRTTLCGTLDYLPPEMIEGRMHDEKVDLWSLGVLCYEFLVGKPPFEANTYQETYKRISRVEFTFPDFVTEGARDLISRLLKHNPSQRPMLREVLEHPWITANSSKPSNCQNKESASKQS
assay summary: Aurora-A (human) kinase assay (Kemptide substrate)
Assay type: biochemical
recorded conditions: pIC50 is -log(IC50, M); 15 μM ATP; read-out: Kinase Inhibition pIC50 Aurora A kinase (converted)
Procedure: Aurora-A (human) kinase assay. This was achieved by measurement of incorporation of radioactive phosphate from ATP into Kemptide substrate (LRRASLG), upon phosphorylation by commercially obtained aurora-A kinase. […] After washing 5 times with 75 mM aq orthophosphoric acid and once in methanol, plates were dried, scintillant added and incorporated radioactivity measured in a scintillation counter (TopCount, Packard Instruments, Pangbourne, Berks, UK). […]
Remember to follow the number with its unit.

molecule	IC50
Cc1nc(N)sc1-c1ccnc(Nc2ccc(S(=O)(=O)NCc3ccccc3)cc2)n1 [Compound 73]	316 nM
CCNc1nc(C)c(-c2ccnc(Nc3ccc(N4CCOCC4)cc3C)n2)s1 [Compound 146]	2510 nM
CNc1nc(C)c(-c2ccnc(Nc3ccc(S(=O)(=O)NCCO)cc3)n2)s1 [Compound 67]	316 nM
COc1cc(Nc2nccc(-c3sc(N)nc3C)n2)cc(OC)c1OC [Compound 168]	31.6 nM

For the next question, use this molecule.
Task item: # get_value(readout= IC50, system= Aurora A kinase (Homo sapiens)) for COc1cc(Nc2nccc(-c3sc(-c4cccnc4)nc3C)n2)ccc1N1CCOCC1 [Compound 156]
Reply: 100 nM

====

target entity: CDK9/cyclin T1 (Homo sapiens, UniProt P50750)
assay summary: CDK 9 assay (CTD peptide substrate)
Type: biochemical
recorded conditions: read-out: Kinase Inhibition pIC50 CDK9-cyclin T1 (converted)
property name: IC50 (nM)
// note: answer is a bare numeric in nM

CCNc1nc(C)c(-c2ccnc(Nc3cccc(CNS(=O)(=O)C(F)(F)F)c3)n2)s1 316
Cc1nc(N)sc1-c1ccnc(Nc2cccc(CNS(C)(=O)=O)c2)n1 7.94
CNc1nc(C)c(-c2ccnc(Nc3ccc(S(=O)(=O)NCc4ccccc4)cc3)n2)s1 6310

For the next question, use this compound.
Task item: Item under review: CCNc1nc(C)c(-c2ccnc(Nc3cccc(S(=O)(=O)NCC)c3)n2)s1 . Reported IC50?
Reply: 10

====

target entity: CDK2-cyclin A (Homo sapiens)
assay summary: Kinase assay (radioactive phosphate incorporation), CDK2-cyclin A
Type: biochemical
recorded conditions: read-out: Kinase Inhibition pIC50 CDK2-cyclin A (converted)
# Lookup of reported IC50 keyed by entry
Remember to follow the number with its unit.

Sample records with IC50:
CCNS(=O)(=O)c1ccc(Nc2nccc(-c3sc(C)nc3C)n2)cc1 50.1 nM
CNS(=O)(=O)c1cccc(Nc2nccc(-c3sc(C)nc3C)n2)c1 200 nM
CC(=O)NCc1ccc(Nc2nccc(-c3sc(N)nc3C)n2)cc1 1260 nM
Cc1nc(C)c(-c2ccnc(Nc3cccc(CNS(=O)(=O)C(F)(F)F)c3)n2)s1 1580 nM

For the next question, use this compound.
Task item: Item under review: Cc1nc(N)sc1-c1ccnc(Nc2cccc(S(=O)(=O)NCCO)c2)n1 . Reported IC50?
Reply: 1000 nM

====

target entity: CDK2-cycline E (Homo sapiens)
assay summary: Kinase assay (radioactive phosphate incorporation), CDK2-cyclin E
Assay type: biochemical
recorded conditions: read-out: Kinase Inhibition pIC50 CDK2-cycline E (converted)
property name: IC50 (nM)
// note: answer is a bare numeric in nM

Sample records with IC50:
COCCNS(=O)(=O)c1ccc(Nc2nccc(-c3sc(C)nc3C)n2)cc1 10
Cc1nc(N(C)c2cccnc2)sc1-c1ccnc(Nc2ccc(N3CCOCC3)cc2)n1 3160
CNc1ccc(Nc2nccc(-c3sc(C)nc3C)n2)cc1C(F)(F)F 251
Cc1nc(C)c(-c2ccnc(Nc3cccc(CNS(C)(=O)=O)c3)n2)s1 25.1

Task item: Item under review: CCNc1nc(C)c(-c2ccnc(NCc3cccnc3)n2)s1 . Reported IC50?
Reply: 6310

====

Measured pIC50 on protein kinases (panel of Table 4) (Homo sapiens, UniProt P50750) follows.
Sequence (P50750 whole entry): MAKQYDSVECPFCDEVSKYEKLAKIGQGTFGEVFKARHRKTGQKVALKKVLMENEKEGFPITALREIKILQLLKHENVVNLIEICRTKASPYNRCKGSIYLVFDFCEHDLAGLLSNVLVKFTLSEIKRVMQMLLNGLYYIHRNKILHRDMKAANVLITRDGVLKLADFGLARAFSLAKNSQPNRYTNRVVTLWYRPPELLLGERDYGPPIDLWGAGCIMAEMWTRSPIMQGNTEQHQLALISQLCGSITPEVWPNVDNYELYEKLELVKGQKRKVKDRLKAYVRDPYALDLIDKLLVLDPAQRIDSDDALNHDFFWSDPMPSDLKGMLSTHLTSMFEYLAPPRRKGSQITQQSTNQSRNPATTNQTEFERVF
Here pIC50 is given on a logarithmic scale as minus log10 of the concentration in mol/L.

CCNc1nc(C)c(-c2ccnc(Nc3ccc(N4CCNCC4)cc3)n2)s1 6.96
COCCNS(=O)(=O)c1cccc(Nc2nccc(-c3sc(N)nc3C)n2)c1 7.52
CNc1nc(C)c(-c2ccnc(Nc3cccc(S(C)(=O)=O)c3)n2)s1 9.00

For the next question, use this compound.
Task item: Item under review: CNc1nc(C)c(-c2ccnc(Nc3ccc(C)c(S(=O)(=O)N4CCOCC4)c3)n2)s1 . Reported pIC50?
Reply: 7.66

====

target entity: protein kinases (panel of Table 4) (Homo sapiens, UniProt P11802)
Sequence (P11802 whole entry): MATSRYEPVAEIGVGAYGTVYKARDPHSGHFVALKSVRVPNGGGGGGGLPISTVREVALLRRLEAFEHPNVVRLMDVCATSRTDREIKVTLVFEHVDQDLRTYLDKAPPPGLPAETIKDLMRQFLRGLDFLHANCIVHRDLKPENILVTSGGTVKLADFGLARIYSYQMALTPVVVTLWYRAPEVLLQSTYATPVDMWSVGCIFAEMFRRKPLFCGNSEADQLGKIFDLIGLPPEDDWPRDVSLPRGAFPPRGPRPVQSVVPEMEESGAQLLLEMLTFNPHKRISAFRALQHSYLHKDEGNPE
property name: IC50 (µM)
// note: answer is a bare numeric in µM

Task item: Item under review: CNc1nc(C)c(-c2ccnc(Nc3cccc(S(C)(=O)=O)c3)n2)s1 [Compound 27] . Reported IC50?
Reply: 0.18

Task item: CCNc1nc(C)c(-c2ccnc(Nc3ccc(N4CCNCC4)cc3)n2)s1 [Compound 59] , same question.
Reply: 0.046

Task item: COCCNS(=O)(=O)c1cccc(Nc2nccc(-c3sc(N)nc3C)n2)c1 [Compound 55] , same question.
Reply: 1.6

====

target entity: Flt3 (FMS-like tyrosine kinase-3) (Homo sapiens)
Sequence (P36888 27-993): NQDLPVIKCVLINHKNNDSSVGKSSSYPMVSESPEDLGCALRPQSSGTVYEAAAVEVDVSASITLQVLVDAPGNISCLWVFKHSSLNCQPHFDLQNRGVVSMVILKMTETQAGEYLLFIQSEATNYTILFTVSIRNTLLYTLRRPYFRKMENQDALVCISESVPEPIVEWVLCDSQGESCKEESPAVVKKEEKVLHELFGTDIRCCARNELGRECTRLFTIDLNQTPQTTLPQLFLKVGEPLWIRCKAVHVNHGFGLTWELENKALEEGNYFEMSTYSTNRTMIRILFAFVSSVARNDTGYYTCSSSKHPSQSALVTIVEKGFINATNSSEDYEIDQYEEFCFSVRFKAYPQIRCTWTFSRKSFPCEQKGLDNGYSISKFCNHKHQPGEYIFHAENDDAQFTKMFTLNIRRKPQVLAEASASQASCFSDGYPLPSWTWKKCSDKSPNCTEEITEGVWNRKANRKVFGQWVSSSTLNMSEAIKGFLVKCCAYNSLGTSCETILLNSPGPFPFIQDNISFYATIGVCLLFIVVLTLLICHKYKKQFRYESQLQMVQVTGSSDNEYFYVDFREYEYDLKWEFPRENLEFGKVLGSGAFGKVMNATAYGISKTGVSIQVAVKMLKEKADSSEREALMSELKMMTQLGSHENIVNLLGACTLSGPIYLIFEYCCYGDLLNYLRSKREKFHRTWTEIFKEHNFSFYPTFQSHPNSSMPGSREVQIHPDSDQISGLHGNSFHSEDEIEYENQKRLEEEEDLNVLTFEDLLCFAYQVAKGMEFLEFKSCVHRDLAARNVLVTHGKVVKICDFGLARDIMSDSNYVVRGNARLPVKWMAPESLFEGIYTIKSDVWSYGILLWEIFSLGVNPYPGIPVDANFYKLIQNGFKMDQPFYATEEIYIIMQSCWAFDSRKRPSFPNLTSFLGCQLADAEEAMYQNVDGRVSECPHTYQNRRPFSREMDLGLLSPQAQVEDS
assay summary: Kinase assay (radioactive phosphate incorporation), Flt3
Format: biochemical
recorded conditions: pIC50 is -log(IC50, M), read-out: Kinase Inhibition pIC50 Flt3 (converted)
Experimental: Kinase assays. The compounds of the invention above were investigated for their ability to inhibit the enzymatic activity of various protein kinases (Table 2). This was achieved by measurement of incorporation of radioactive phosphate from ATP into appropriate polypeptide substrates. […] After washing 3 times with 75 mM aq orthophosphoric acid, plates were dried, scintillant added and incorporated radioactivity measured in a scintillation counter (TopCount, Packard Instruments, Pangbourne, Berks, UK). […]
Please respond with 1 (yes) when measured IC50 is strictly beneath 80 nM, and with 0 (no) in all other cases.

molecule	label value
CNc1nc(C)c(-c2ccnc(Nc3ccc(S(C)(=O)=O)cc3)n2)s1 [Compound 20]	0 (no)
Cc1nc(-c2cccnc2)sc1-c1ccnc(Nc2ccc(N3CCOCC3)cc2)n1 [Compound 100]	0 (no)

Task item: Check if IC50 falls below 80 nM for CCNc1nc(C)c(-c2ccnc(Nc3cccc(S(=O)(=O)NCC)c3)n2)s1 [Compound 29] .
Reply: 0 (no)

Task item: Cc1nc(C)c(-c2ccnc(Nc3cccc(CNC(=O)c4ccccn4)c3)n2)s1 [Compound 91] , same question.
Reply: 0 (no)
